tested on: U2OS; assay: Multiplex assay against U2OS; type: toxicity, cell-based; details: human, 12 h, 10 µM, compound concentration 10 uM, replicate 1
Kindly apply the following: t if Population Mitochondria Different-Phenotype (%) is less than 20%, f in every other case.

Look over these answered cases.
O=C1N/C(=N/c2ccccc2F)S/C1=C\c1ccc(C(=O)O)cc1 :: t
CCCS(=O)(=O)c1nc(NC2CC2)cc(-c2ccc3c(ccn3C3CC(C)(C)NC(C)(C)C3)c2)n1 :: t
O=C1NC(=O)C(c2cnc3ccccn23)=C1c1cn2c3c(cc(F)cc13)CN(C(=O)N1CCCCC1)CC2 [LY-2090314] :: f
COC(=N)c1nc2ccc3ncnc(Nc4ccc(OC)cc4F)c3c2s1 :: t
Cl.O=C(c1ccc(Nc2nccc(-c3cc4ccccc4s3)n2)cc1)N1CCC(N2CCCC2)CC1 :: f
CCCS(=O)(=O)Nc1ccc(F)c(C(=O)c2c[nH]c3ncc(Cl)cc23)c1F [PLX-4720] :: f
CCN1CCN(Cc2ccc(Nc3ncc(F)c(-c4cc(F)c5nc(C)n(C(C)C)c5c4)n3)nc2)CC1.CS(=O)(=O)O :: f
COc1cccc2cc(-c3nc([C@H]4CC[C@H](C(=O)O)CC4)n4ncnc(N)c34)[nH]c12 [OSI-027] :: f

## Task Threshold test, Population Mitochondria Different-Phenotype (%) < 20%: `COc1cc(N2CCN(C)CC2)ccc1Nc1ncc2c(n1)N(C)c1ccccc1C(=O)N2C`
## Result f

## Task # TODO verify Population Mitochondria Different-Phenotype (%) < 20% strictly for this molecule: `CNC(=O)c1ccc(Nc2nc(OC3CCCC3)c3c(-c4ccc5nc(C)oc5c4)c[nH]c3n2)c(OC)c1`
## Result t

## Task is_below(Population Mitochondria Different-Phenotype (%), 20%) for COc1cc2ncnc(Nc3ccc(F)c(Cl)c3)c2cc1NC(=O)/C=C/CN1CCCCC1 [DACOMITINIB ANHYDROUS] ?
## Result t

## Task Please check: Population Mitochondria Different-Phenotype (%) for `NC(=O)c1cccc(-c2cc(Nc3ccc(OC(F)(F)F)cc3)ncn2)c1` , strictly under 20% or not?
## Result f

## Task Please indicate whether the reported Population Mitochondria Different-Phenotype (%) of O=C(Nc1ccc(-n2nc(-c3cccnc3)cc2C(F)(F)F)cn1)c1ccc(-c2ccccc2)c(F)c1 [BI 2049] is strictly below 20%.
## Result f

## Task # check: Population Mitochondria Different-Phenotype (%) < 20% for `CCOc1cc(C(=O)N2CCC(N3CCN(C)CC3)CC2)ccc1Nc1ncc2c(n1)N(C1CCCC1)c1ccccc1C(=O)N2C`
## Result f

## Task Say whether its Population Mitochondria Different-Phenotype (%) is strictly beneath 20%. Entry: COCC(=O)NC/C=C/c1ccc2ncnc(Nc3ccc(Oc4ccc(C)nc4)c(C)c3)c2c1 [CP-724714]
## Result f

## Task Population Mitochondria Different-Phenotype (%) strictly < 20% for this molecule? Cn1nc(C(F)(F)F)cc1-c1cnc(N2CCc3cc(S(=O)(=O)Nc4c(F)cc(Cl)cc4F)cc(N4CCCC4=O)c32)nc1 [TP-020]
## Result f
